Target: Fyn (UniProt P06241)
Sequence (P06241 whole entry, looked up): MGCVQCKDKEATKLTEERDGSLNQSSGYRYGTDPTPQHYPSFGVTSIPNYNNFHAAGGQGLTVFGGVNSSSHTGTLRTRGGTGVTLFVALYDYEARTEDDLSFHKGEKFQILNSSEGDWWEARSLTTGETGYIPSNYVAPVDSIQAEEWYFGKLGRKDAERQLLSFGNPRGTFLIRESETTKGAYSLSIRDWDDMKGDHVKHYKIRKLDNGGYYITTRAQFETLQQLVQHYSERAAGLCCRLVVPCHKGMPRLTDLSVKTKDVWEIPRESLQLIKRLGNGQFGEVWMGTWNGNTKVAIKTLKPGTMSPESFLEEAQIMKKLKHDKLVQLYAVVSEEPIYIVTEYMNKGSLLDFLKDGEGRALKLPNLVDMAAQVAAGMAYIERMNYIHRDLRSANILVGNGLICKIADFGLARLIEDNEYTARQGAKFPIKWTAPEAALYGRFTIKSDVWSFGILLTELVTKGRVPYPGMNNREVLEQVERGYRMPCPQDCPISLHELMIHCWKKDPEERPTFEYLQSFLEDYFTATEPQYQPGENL
Assay: phosphorylation enrichment, bacterial display (enrichment ratio); higher = better substrate or ligand; peptides without Tyr show the background;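 further: 11-residue human phosphosite peptides and single-mutation variants displayed on the E. coli surface, counted by deep sequencing, each peptide's frequency after selection divided by its frequency in the unselected input library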;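 further: frequency after pTyr selection over input frequency; kinase dosed for 20-30% of maximal phosphorylation in three min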
Label scheme for phosphorylation enrichment: lower than 0.5 is NO, 0.5 and above is YES.

Is phosphorylation enrichment for IFHLSYHHNCE [PDE6B_Y227_L228H_YF] at or above 0.5? YES

Does the reported phosphorylation enrichment for SVTSTYSPALN [TP53_Y126_C124S] fall at or above the 0.5 mark? NO

Exam item: decide whether the reported phosphorylation enrichment for MPVDGYISGLL [PAK6_Y81] is at least 0.5. YES

Decide: phosphorylation enrichment of ANAYIYDVQLP [L1CAM_Y420_V421D] >= 0.5? YES

Threshold query (phosphorylation enrichment >= 0.5) on PTKNDYWAMPA [WWOX_Y287_L291P] YES

State whether the measured phosphorylation enrichment reaches 0.5, counting equality as reaching it, for YGSSSYRGAGG [RPA2_Y14_G15R] NO

Decide: is the reported value of phosphorylation enrichment for RYFTTYDTNGR [CLCA1_Y665] equal to or greater than 0.5? YES

API: above_or_equal(metric=phosphorylation enrichment, cutoff=0.5) for item REVPVYTFSEP [FAM120B_Y368_D370Y_YF] YES

Can SLESAYPEGSQ [TTF1_Y357] be said to have phosphorylation enrichment at or above 0.5? YES

For this sequence, is measured phosphorylation enrichment 0.5 or higher? YLGEEYVKAVG [TF_Y674] NO

Record KAPPTYDTVLQ [CYP3A4_Y347] ; criterion: phosphorylation enrichment no lower than 0.5. Met? YES

Could you please find out whether SVNIRYLLFPS [SERAC1_Y548] has phosphorylation enrichment that meets 0.5 or exceeds it? NO

Reported phosphorylation enrichment reaches at least 0.5 for NLVSEYQQYQD [TUBB3_Y422_D417N] ? YES

Dear colleague, could you confirm whether PRAEWYRDDLL [MYOM2_Y317_V321L] has phosphorylation enrichment at or above 0.5? YES

Quick check: does HHLSTYTKMLF [CHST8_Y251_R247H] have phosphorylation enrichment greater than or equal to 0.5? YES

hey, is phosphorylation enrichment for this one >= 0.5? DEQKKYYNAMK [SCN5A_Y1494_E1489D] NO

Is reported phosphorylation enrichment greater than or equal to 0.5 here: EKRDAYVSRLN [GSR_Y150] NO

phosphorylation enrichment >= 0.5 for QYPDVYAREEV [CRX_Y67] ? YES

Please check the record EKGEEYGGGGG [TUBA1A_Y451_E447K] and state if its phosphorylation enrichment is at or above 0.5. NO

Does the reported phosphorylation enrichment for PTFEHYANSTQ [SLC12A3_Y70_YF] fall at or above the 0.5 mark? YES

Does the sequence LPQDGYRIVQH [PTPRT_Y1329_R1324L] have recorded phosphorylation enrichment that is 0.5 or more? NO

Is it the case that HQKKPYCHTHN [NRAP_Y53_A56T] has phosphorylation enrichment reaching or exceeding 0.5? YES

Check this sequence for phosphorylation enrichment at or above 0.5: KRYRIYHLAIS [BRCA2_Y3009_T3013I] NO

Given EQSGSYIWVLA [DLG1_Y895_P899L] , state whether its phosphorylation enrichment is at least 0.5. NO

Is phosphorylation enrichment at least 0.5? Consider RAHARYCADAC [ACOT4_Y52_R57C] NO

Evaluate YIPSNYVAEDR [FRK_Y104] : phosphorylation enrichment at minimum 0.5? YES

Given the entry EREYKYGAHNY [OAT_Y50] , answer whether its phosphorylation enrichment meets or surpasses 0.5. NO

In plain terms: is recorded phosphorylation enrichment at least 0.5 for RGKEPYTKKAL [TTC21B_Y160] ? NO

Record RRIHSYRGHVW [VHL_Y112_L116V] ; criterion: phosphorylation enrichment no lower than 0.5. Met? YES

Please indicate if the recorded phosphorylation enrichment for CEHRGCLFLAI [TEK_Y897_Y897C_YF] meets or exceeds 0.5. NO

Quick check, phosphorylation enrichment >= 0.5? EKPAKYDDIKK [GAPDH_Y255] NO

Kindly determine if phosphorylation enrichment recorded for AYRRGYFDEEM [PLEC_Y2971] is above or exactly 0.5. NO

Evaluate MTYVFYRENLR [NLRP14_Y443] : phosphorylation enrichment at minimum 0.5? YES

Please tell me: is the sequence KVGPGSLGSGG [RET_Y826_Y826S] at or over 0.5 in terms of phosphorylation enrichment? NO

Item KCCCIYEKPRS [PPP1R11_Y64_A69S] with phosphorylation enrichment of 0.5 or above? YES

API: above_or_equal(metric=phosphorylation enrichment, cutoff=0.5) for item QGLRLYRSHLA [BTK_Y617_P619S] YES

Decide: phosphorylation enrichment of LFQAKYQIRFR [CRLF1_Y272_YF] >= 0.5? YES

For this sequence, is measured phosphorylation enrichment 0.5 or higher? FSGIFYKPESL [L2HGDH_Y103_H98Y_YF] NO

hey, is phosphorylation enrichment for this one >= 0.5? YCRHNYGAVES [HLA-DRB1_Y112_V114A] NO

Please indicate if the recorded phosphorylation enrichment for TEALFYTDDPA [ADPRS_Y75_T79P_YF] meets or exceeds 0.5. YES

Is phosphorylation enrichment at least 0.5? Consider SVTCTYSPALD [TP53_Y126_N131D] YES

Form field: phosphorylation enrichment at least 0.5? Entry: LRRFIYRPPDR [OTOF_Y1231] YES

---

Molecular target: FGFR3 (UniProt P22607)
Sequence (P22607 whole entry, looked up): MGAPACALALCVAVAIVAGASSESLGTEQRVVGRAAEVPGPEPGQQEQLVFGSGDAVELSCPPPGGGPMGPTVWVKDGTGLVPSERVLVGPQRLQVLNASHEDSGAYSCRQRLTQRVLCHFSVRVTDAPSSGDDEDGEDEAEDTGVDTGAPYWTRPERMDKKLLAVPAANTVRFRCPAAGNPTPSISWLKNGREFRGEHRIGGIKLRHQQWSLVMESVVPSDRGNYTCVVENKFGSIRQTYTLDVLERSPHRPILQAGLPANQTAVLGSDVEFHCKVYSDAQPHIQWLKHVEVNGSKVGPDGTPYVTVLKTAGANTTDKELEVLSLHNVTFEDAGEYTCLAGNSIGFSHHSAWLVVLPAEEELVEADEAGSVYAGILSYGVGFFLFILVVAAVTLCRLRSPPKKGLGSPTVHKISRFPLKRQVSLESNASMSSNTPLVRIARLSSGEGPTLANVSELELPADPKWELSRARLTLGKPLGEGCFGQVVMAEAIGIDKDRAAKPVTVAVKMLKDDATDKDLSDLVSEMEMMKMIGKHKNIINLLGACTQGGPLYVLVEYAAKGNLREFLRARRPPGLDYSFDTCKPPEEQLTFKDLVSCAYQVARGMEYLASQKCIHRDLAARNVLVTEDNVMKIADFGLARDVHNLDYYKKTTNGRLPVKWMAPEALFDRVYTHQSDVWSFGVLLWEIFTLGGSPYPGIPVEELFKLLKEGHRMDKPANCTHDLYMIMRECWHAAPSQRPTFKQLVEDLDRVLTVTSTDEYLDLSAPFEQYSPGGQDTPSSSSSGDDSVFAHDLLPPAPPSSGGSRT
Experiment: phosphorylation enrichment, bacterial display (enrichment ratio); higher = better substrate or ligand; peptides without Tyr show the background
If the reported phosphorylation enrichment equals or exceeds 0.6, assign TRUE. If not, assign FALSE.

Please check the record RELGEYGLQAF [ALDH2_Y497_YF] and state if its phosphorylation enrichment is at or above 0.6. TRUE

Record NETNKYQISVN [FGB_Y368_A365T] ; criterion: phosphorylation enrichment no lower than 0.6. Met? FALSE

Is it the case that GGYNNYGYGSD [HNRNPH3_Y159_N163S] has phosphorylation enrichment reaching or exceeding 0.6? FALSE

Answer whether phosphorylation enrichment of PPSGEYFGHCG [TRIP6_Y275_Q278H] is greater than or equal to 0.6. TRUE

Given VKANTYENYWP [GATM_Y100_K102N] , state whether its phosphorylation enrichment is at least 0.6. TRUE

Does the reported phosphorylation enrichment for VDSNPYSRLVA [UBA5_Y53_M57V] fall at or above the 0.6 mark? FALSE

Hi, just wondering whether LNPFIYSLRNC [OR1A2_Y288_W293C] shows phosphorylation enrichment of 0.6 or higher. TRUE

Does phosphorylation enrichment meet or surpass 0.6 for LKEIHYPPYTD [ALDH3B2_Y362] ? TRUE

---

Target: EPHB1 (UniProt P54762)
Sequence (P54762 whole entry, looked up): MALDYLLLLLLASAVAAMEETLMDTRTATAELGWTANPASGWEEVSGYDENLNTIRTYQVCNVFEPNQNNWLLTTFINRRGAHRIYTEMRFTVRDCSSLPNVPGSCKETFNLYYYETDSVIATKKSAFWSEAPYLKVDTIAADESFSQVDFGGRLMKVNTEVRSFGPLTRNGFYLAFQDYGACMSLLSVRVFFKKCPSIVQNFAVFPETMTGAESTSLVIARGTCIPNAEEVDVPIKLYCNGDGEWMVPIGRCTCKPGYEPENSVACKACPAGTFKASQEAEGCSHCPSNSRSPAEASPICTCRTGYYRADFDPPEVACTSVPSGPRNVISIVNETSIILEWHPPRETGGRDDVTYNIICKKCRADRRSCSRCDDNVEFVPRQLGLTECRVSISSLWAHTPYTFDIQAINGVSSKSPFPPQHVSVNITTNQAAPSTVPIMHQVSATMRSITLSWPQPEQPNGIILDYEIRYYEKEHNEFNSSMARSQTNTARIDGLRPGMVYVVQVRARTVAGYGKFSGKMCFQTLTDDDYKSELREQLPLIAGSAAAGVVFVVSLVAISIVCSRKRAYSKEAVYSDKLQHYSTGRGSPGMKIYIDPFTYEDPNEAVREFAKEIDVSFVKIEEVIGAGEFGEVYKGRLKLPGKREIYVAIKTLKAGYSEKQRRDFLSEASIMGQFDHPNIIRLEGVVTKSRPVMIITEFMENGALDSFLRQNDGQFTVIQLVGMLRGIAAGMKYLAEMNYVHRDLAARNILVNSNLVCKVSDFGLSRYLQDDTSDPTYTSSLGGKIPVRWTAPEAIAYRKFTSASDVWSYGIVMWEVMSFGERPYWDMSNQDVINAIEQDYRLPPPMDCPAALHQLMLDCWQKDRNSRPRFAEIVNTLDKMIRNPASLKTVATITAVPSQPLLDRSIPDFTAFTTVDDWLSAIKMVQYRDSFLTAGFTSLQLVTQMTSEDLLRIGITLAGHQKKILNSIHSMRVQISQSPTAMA
Experiment: phosphorylation enrichment, bacterial display (enrichment ratio); higher = better substrate or ligand; peptides without Tyr show the background
Rule: yes for phosphorylation enrichment not less than 0.4, no for anything less.

Does phosphorylation enrichment meet or surpass 0.4 for HLPAGYIIPLQ [GAA_Y822_R819P] ? no

Hi, just wondering whether AEFGLYAAMVR [VSX2_Y222_G223A_YF] shows phosphorylation enrichment of 0.4 or higher. yes

hey, is phosphorylation enrichment for this one >= 0.4? NAMRRYIEEFQ [MNS1_Y244] no

Does the reported phosphorylation enrichment for VYLGAYDCFLP [SLC22A5_Y486_R488C] fall at or above the 0.4 mark? yes

Could you verify whether the entry VNCHQYDGLVG [ATP2A2_Y407_E412G] shows phosphorylation enrichment of no less than 0.4? yes

---

Tested on: AncSZ
Test: phosphorylation enrichment, bacterial display (enrichment ratio); higher = better substrate or ligand; peptides without Tyr show the background
Use 1 as the dividing line for phosphorylation enrichment, with the line itself on the fulfilled side and lower values as not fulfilled.

Quick check: does ARRHPYFFAPE [ALB_Y172_Y174F] have phosphorylation enrichment greater than or equal to 1? fulfilled

Record HEEDNYIELIP [NWD2_Y566] ; criterion: phosphorylation enrichment no lower than 1. Met? fulfilled

Hi team, for CNPLCYPTIMI [OR6K6_Y160_R159C] , is the recorded phosphorylation enrichment at or above 1? not fulfilled

Does the reported phosphorylation enrichment for AAQNCYKVTNA [TPI1_Y105_G110A] fall at or above the 1 mark? not fulfilled

hey, is phosphorylation enrichment for this one >= 1? KDDEKYLDVIR [MTM1_Y260] not fulfilled

Decide: is the reported value of phosphorylation enrichment for CDSSGYWTPEE [PAPPA2_Y908] equal to or greater than 1? fulfilled

Determine whether measured phosphorylation enrichment meets or exceeds 1 for SVVVPYESPEV [TP53_Y220_P222S] fulfilled

Could you tell me if the measured phosphorylation enrichment of LRAGVYHEKDQ [DNM2_Y626_P627H] reaches 1 or more? not fulfilled

Does phosphorylation enrichment meet or surpass 1 for KVDKEYEVHVR [GHR_Y226_R229H] ? not fulfilled

Given RVILRYVNPGT [LAMA3_Y791] , state whether its phosphorylation enrichment is at least 1. fulfilled

API: above_or_equal(metric=phosphorylation enrichment, cutoff=1) for item GLVFLYMEKNQ [PRELP_Y156] not fulfilled

Can SDQRRYSLIDP [CLIP2_Y972_R977P] be said to have phosphorylation enrichment at or above 1? not fulfilled

Please check the record KNSSIYVVANI [VNN1_Y134_N131S] and state if its phosphorylation enrichment is at or above 1. fulfilled

Confirm if phosphorylation enrichment reported for the sequence AGQERYRAITS [RAB11B_Y73] is 1 or above. not fulfilled

Evaluate RLSPEYKQNEI [GJB1_Y243] : phosphorylation enrichment at minimum 1? not fulfilled

Kindly determine if phosphorylation enrichment recorded for DLDPNYVLSSR [CKM_Y125] is above or exactly 1. fulfilled

Tell me whether phosphorylation enrichment is at least 1 here: AAGGRYDGLVG [HARS1_Y363] not fulfilled

Is phosphorylation enrichment for ENGPFYTSFPP [GDAP2_Y488_YF] at or above 1? fulfilled

phosphorylation enrichment >= 1 for QDLRLYRPHLA [BTK_Y617_G613D] ? not fulfilled

Does the reported phosphorylation enrichment for PAVGIYNDNIN [CDCP1_Y707] fall at or above the 1 mark? fulfilled

Assess whether reported phosphorylation enrichment for ISIFYYAKGQP [MPZ_Y82_H81Y] sits at 1 or higher. fulfilled

Does the sequence VDHFGYTKDDK [APOB_Y740] have recorded phosphorylation enrichment that is 1 or more? not fulfilled

Is phosphorylation enrichment for NRSSLYLVAGP [KIAA1614_Y1083] at or above 1? not fulfilled

Identify whether the reported phosphorylation enrichment of the following sequence is 1 or greater: RKVAQYMLENE [SLC16A6_Y224_E221V] not fulfilled

Determine whether this sequence has phosphorylation enrichment no lower than 1: FAELMYTGFWH [ASS1_Y322_V321M] fulfilled

Does the sequence CLAKMYFSAVE [CP_Y539_D544E_YF] have recorded phosphorylation enrichment that is 1 or more? fulfilled

FYI, the data here is from the supplement of paper PMC10065799.
